Biological target: UniProt:P08908
Sequence (P08908 whole entry): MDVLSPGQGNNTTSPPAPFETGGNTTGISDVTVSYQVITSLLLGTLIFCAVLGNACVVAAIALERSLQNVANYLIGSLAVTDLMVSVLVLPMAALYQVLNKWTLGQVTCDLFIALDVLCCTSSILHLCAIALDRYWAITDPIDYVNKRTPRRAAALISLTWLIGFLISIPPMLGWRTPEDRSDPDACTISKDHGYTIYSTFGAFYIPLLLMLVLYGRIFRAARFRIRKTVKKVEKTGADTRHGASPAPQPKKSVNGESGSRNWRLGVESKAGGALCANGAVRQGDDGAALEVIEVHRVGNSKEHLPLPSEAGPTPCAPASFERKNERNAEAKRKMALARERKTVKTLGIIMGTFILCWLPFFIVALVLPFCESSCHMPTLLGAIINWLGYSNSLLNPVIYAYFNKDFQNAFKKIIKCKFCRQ
Assay: Agonist activity at human 5HT1A receptor expressed in CHO cells by [35S]GTPgammaS binding assay
Format: functional, cell-based
experimental.endpoint: Emax (%)

These recorded examples may help you get a feel for the data.
Asked: Item CCN(CCCc1c[nH]c2ccc(F)cc12)C1COc2ccc3c(c2C1)C(=O)NCC3 (racemic) has what recorded Emax?
Given back: 97

Asked: Item N#Cc1ccc2[nH]cc(CCCCN(CC3CC3)C3COc4ccc5c(c4C3)C(=O)NC5)c2c1 (single isomer, unassigned; (-)) has what recorded Emax?
Given back: 0

Asked: Item N#Cc1ccc2[nH]cc(CCCCN(CC3CC3)C3COc4ccc5c(c4C3)C(=O)NC5)c2c1 (single isomer, unassigned; (+)) has what recorded Emax?
Given back: 100

Asked: Item O=C1NCc2ccc3c(c21)CC(N(CCCc1c[nH]c2ccc(F)cc12)CC1CC1)CO3 (single isomer, unassigned; (-)) has what recorded Emax?
Given back: 0

Asked: Item O=C1NCc2ccc3c(c21)CC(N(CCCc1c[nH]c2ccc(F)cc12)CC1CC1)CO3 (racemic) has what recorded Emax?
Given back: 0

Asked: Item CCN(CCCc1c[nH]c2ccc(F)cc12)C1COc2ccc3c(c2C1)C(=O)NC3 (racemic) has what recorded Emax?
Given back: 78

Asked: Item O=C1NCc2ccc3c(c21)CC(NCCCc1c[nH]c2ccc(F)cc12)CO3 (racemic) has what recorded Emax?
Given back: 100

Asked: Item O=C1NCc2ccc3c(c21)CC(NCCCCc1c[nH]c2ccc(F)cc12)CO3 (racemic) has what recorded Emax?
Given back: 96

Asked: Item O=C1NCCc2ccc3c(c21)CC(N(CCCc1c[nH]c2ccc(F)cc12)C1CCC1)CO3 (racemic) has what recorded Emax?
Given back: 77

Asked: Item CC(C)N(CCCc1c[nH]c2ccc(F)cc12)C1COc2ccc3c(c2C1)C(=O)NCC3 (racemic) has what recorded Emax?
Given back: 94

A: O=C1NCCc2cc(F)c3c(c21)CC(N(CCCc1c[nH]c2ccc(F)cc12)CC1CC1)CO3 (racemic)
B: N#Cc1ccc2[nH]cc(CCCNC3COc4ccc5c(c4C3)C(=O)NC5)c2c1 (racemic)
Asked: Could you tell me which of A and B has the lower Emax reading? To answer, give the label that identifies your chosen option.
Given back: A
(A: 62%, B: 91%)

###

Target: Sodium-dependent serotonin transporter (Homo sapiens)
Sequence (P31645 whole entry): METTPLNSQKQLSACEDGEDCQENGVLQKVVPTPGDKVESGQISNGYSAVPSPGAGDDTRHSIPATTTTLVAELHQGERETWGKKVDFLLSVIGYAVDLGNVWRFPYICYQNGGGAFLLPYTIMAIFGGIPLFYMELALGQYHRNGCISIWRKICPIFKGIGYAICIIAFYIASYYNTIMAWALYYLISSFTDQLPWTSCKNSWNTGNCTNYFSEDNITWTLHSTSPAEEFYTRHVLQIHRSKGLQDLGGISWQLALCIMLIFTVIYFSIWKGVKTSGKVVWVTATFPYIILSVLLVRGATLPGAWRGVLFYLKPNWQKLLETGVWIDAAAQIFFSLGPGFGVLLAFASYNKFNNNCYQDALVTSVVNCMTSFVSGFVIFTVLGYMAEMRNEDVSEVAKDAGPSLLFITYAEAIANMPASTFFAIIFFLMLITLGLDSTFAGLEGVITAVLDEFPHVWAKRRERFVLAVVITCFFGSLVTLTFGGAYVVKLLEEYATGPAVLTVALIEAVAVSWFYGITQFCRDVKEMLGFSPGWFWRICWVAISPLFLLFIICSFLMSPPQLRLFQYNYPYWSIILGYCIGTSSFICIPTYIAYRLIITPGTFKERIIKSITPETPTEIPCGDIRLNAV
pKi: −log10 of the molar value.
experimental.endpoint: pKi

Asked: Item O=C1NCCc2cc(F)c3c(c21)CC(NCCCc1c[nH]c2ccc(F)cc12)CO3 (racemic) has what recorded pKi?
Given back: 7.57

Asked: Item O=C1NCc2ccc3c(c21)CC(N(CCCc1c[nH]c2ccc(F)cc12)CC1CC1)CO3 (racemic) has what recorded pKi?
Given back: 7.82

Asked: Item O=C1NCc2ccc3c(c21)CC(NCCCCc1c[nH]c2ccc(F)cc12)CO3 (racemic) has what recorded pKi?
Given back: 7.70

Asked: Item N#Cc1ccc2[nH]cc(CCCCN(CC3CC3)C3COc4ccc5c(c4C3)C(=O)NC5)c2c1 (racemic) has what recorded pKi?
Given back: 7.60

Asked: Item O=C1NCCc2ccc3c(c21)CC(N(CCCc1c[nH]c2ccc(F)cc12)CC1CC1)CO3 (racemic) has what recorded pKi?
Given back: 7.59

P: CN(CCCc1c[nH]c2ccc(F)cc12)C1COc2ccc3c(c2C1)C(=O)NCC3 (racemic)
Q: CC(C)CN(CCCc1c[nH]c2ccc(F)cc12)C1COc2ccc3c(c2C1)C(=O)NCC3 (racemic)
R: O=C1NCc2ccc3c(c21)CC(NCCCc1c[nH]c2ccc(F)cc12)CO3 (racemic)
S: O=C1NCCc2cc(F)c3c(c21)CC(N(CCCc1c[nH]c2ccc(F)cc12)CC1CC1)CO3 (racemic)
T: O=C1NCCc2ccc3c(c21)CC(N(CCCc1c[nH]c2ccc(F)cc12)C1CCC1)CO3 (racemic)
Asked: Sort by pKi, descending. Lab note: record answer as labels in requested order.
Given back: R, P, T, S, Q

Value source: ChEMBL document CHEMBL1153150
